Data provenance is PubChem BioAssay AID732.

- Tested on: in vivo angiogenesis, blood vessel count
- test-details: reduction of blood vessel formation in vivo – HTS, in vivo study (AID 732);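 note: zebrafish embryos dosed at one day post fertilization; 0% = reference inhibitor and 100% = plate mean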
- reported-conditions: active compounds read low;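 tested at 30 µM in the well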
List of vessel count % control values.
value-type: vessel count % control (%)

>>> number("COC(=O)c1c(C)[nH]c(C)c1C(=O)c1ccccc1Cc1ccccc1")
102
>>> number("CN1C2CCC1CC(OC(=O)c1cc(Cl)cc(Cl)c1)C2 (stereo unspecified)")
77
>>> number("NC(=O)CNCCC(c1ccccc1)c1ccccc1")
119
>>> number("NC(N)=NC(=O)c1nc(Cl)c(N2CCCCCC2)nc1N")
119
>>> number("NC(Cc1cccc(-c2ccccc2CP(=O)(O)O)c1)C(=O)O (stereo unspecified)")
106
>>> number("NC(CO)C(=O)NNCc1ccc(O)c(O)c1O (stereo unspecified)")
120
>>> number("CC/C(=C(\\c1ccccc1)c1ccc(OCCN(C)C)cc1)c1ccccc1")
64.7
>>> number("Nc1c2c(nc3ccccc13)CCCC2O (stereo unspecified)")
86.4
>>> number("COc1cc2nc(N3CCN(C(=O)OCc4ccccc4)C(C(=O)NC(C)(C)C)C3)nc(N)c2cc1OC (stereo unspecified)")
104
>>> number("COC(=O)c1c(-c2cc(OC)c(OC)c(OC)c2)c2ccnc(OCc3ncccn3)c2c(=O)n1Cc1ccnc(C)c1")
99.4
>>> number("CCCN(CCC)[C@H]1CCc2c(F)ccc(O)c2C1")
93.1
